- Test system: SN12C renal
- ASSAY_REMARKS: NCI-60 one-dose screen, 48 h
- CONDITION_SET: 10 µM unless noted
Compounds without any hit were thinned out: in the full panel of roughly 83,000, 20% have a hit. Active and inactive are the calls of the source. The calls were made as follows: active = growth percent below 10; inactive = the rest.
// one of active, inactive, no free text

Example entries begin here.
molecule="O=C(/C=C/C12c3ccccc3C(c3ccccc31)C1C(=O)N(c3ccccc3)C(=O)C12)c1ccc(Cl)cc1 (stereo not given)" assigned_label=inactive
molecule=CC(C)(C)c1ccc(C(=O)Nc2sc3c(c2C(N)=O)CCC(=O)C3)cc1 assigned_label=active

Dear all, I need the recorded test outcome for `Cc1ccc(S(=O)(=O)NN/C(N)=N\S(=O)(=O)c2cc(C)c(Cl)cc2SCc2ccccc2)cc1` , thank you. inactive

What did the test return for `NC(N)=N/N=C(/c1ccccc1)c1ccccc1F` ? inactive

What did the test return for `CNC(=O)c1c(NC(=O)c2ccc(C(C)(C)C)cc2)sc2c1CCC(=O)C2` ? active

Could you check what this test reported for `CCCCCCCCCCCCCCCCCC1=NCCN1C(=O)OCCO` ? inactive

# fetch the recorded call for `CCCCCCCC/C=C/CCCCCCCC1=NCC[N+]1(CCO)CCO` here inactive

Outcome logged for `O[C@H]1CO[C@H]2[C@@H]1OC[C@@H]2Oc1ccc(Nc2nc(Nc3ccc(F)c(Cl)c3)ncc2F)cc1Cl` in this assay: inactive

Just curious, what result did `O=C(Nc1cccc2[nH]c(C(F)(F)F)nc12)c1cc(Cl)ccc1Cl` get here? inactive

So what was the verdict on `COc1cc2c(cc1OC)-c1ccc3cc4c(cc3c1N(CCCN(C)C)C2)OCO4` in this test? inactive

* * *

- Test system: 786-0 renal
- ASSAY_REMARKS: NCI-60 one-dose screen, 48 h
- CONDITION_SET: 10 µM unless noted
Compounds without any hit were thinned out: in the full panel of roughly 83,000, 20% have a hit. Calls of active or inactive are those of the source. Rule for the calls: active = growth percent below 10; inactive = the rest.
I would appreciate it if you answered using one of these outcomes: active, inactive

molecule=CN(C)CCN1C(=O)c2cccc3c(-c4ccc(-c5nc6c7ccccc7c7ccccc7c6[nH]5)cc4)ccc(c23)C1=O measurement_target="786-0 renal" assigned_label=inactive
molecule=Cc1nc2ccc(C(=O)NCc3cc(C(=O)O)c(C)o3)cc2nc1C measurement_target="786-0 renal" assigned_label=inactive
molecule=CNC1(C#N)CCN(Cc2ccccc2)CC1 measurement_target="786-0 renal" assigned_label=inactive

Hello, I am checking results. What call was entered for O=C(/C=C/C12c3ccccc3C(c3ccccc31)C1C(=O)N(c3ccccc3)C(=O)C12)c1ccc(Cl)cc1 (stereo not given) ? active

Hey, what did the test say about O=C(/C=C/C12c3ccccc3C(c3ccccc31)C1C(=O)NC(=O)C12)c1ccc(Cl)cc1 (stereo not given) ? active

Please share the test call associated with `N#C/C(=C\c1ccc(Br)cc1)n1nnc2cc(Cl)c(Cl)cc21` . inactive

* * *

- Tested on: ACHN renal
- ASSAY_REMARKS: NCI-60 one-dose screen, 48 h (100 = growth as untreated, 0 = no growth, -100 = all killed)
- CONDITION_SET: 10 µM unless noted
- Method: Growth inhibition of the ACHN human tumor cell line is measured as a screen for anti-cancer activity. Cells are grown in 96 well plates and exposed to the test compound for 48 hours. Compounds are tested at a single concentration, which is 10^-5 M for most compounds. The reported endpoint is percent growth (GI% or GIPRCNT), where numbers from 0 - 100% represent growth inhibition, and numbers from -100% - 0 represent cell death. For example, a value of 40 represents 60% growth inhibition. […]
About 83,000 compounds went through this panel and 20% of them were active in at least one assay; those are over-represented in the sample as a whole.
MEASURED_ATTRIBUTE: growth (%)
Give bare numbers, in %.

Worked cases, answers included:
molecule="CCC(O)(C(c1ccccc1)c1ccccn1)C(c1ccccc1)c1ccccn1 (stereo unspecified)" measured_attribute=growth numeric_value=95.2
molecule=Cc1c(C(=O)O)nnn1-c1nccs1 measured_attribute=growth numeric_value=99.9
molecule=COC(=O)c1ccc(CSc2nnc(-c3ccncc3)o2)cc1 measured_attribute=growth numeric_value=100

Working through the 2 molecules below one at a time, give growth for each.
1. Cc1[nH]c(-c2nc3ccccc3[nH]2)c(C)c1C(=O)N1CCOCC1
2. O=C(NCOC(O)C(Cl)(Cl)Cl)NCOC(O)C(Cl)(Cl)Cl (stereo unspecified)

1. 98.3
2. 92.8

Batch: growth for all items listed.
1. O=C(CCCCCCCn1cc(-c2cccnc2)nn1)Nc1ccccc1-c1ccccc1
2. O=C1CSC(c2ccc(O)cc2)N1c1nnc(Cn2cnnc2)o1 (stereo unspecified)
3. O=C1Nc2ccccc2/C1=N/N=C/c1ccsc1
4. Cc1cc(C)on1
5. O=C1c2cccc3c(-c4ccc(-c5nc6c7ccccc7c7ccccc7c6[nH]5)cc4)ccc(c23)C(=O)N1CCN1CCNCC1

1. 54.8
2. 108
3. 102
4. 104
5. 71.7

Annotate the molecule `CCCCN(CCCC)CCCn1c(=O)c2sc3ncccc3c2n2nnc(-c3ccccc3)c12` with its measured growth. 97
